# assay_remarks: Cytotoxicity against human HeLa cells by MTS assay
# Format: cell-based
Measured CC50 values are reported for all entries that follow.
Give just the number in µM; leave the unit off.

OC(CO/N=C(\Cl)c1nc2c(F)cccc2o1)CN1CCCCC1 (centres undefined)    40.2

[Q] So what's the measured CC50 for this one? CC(C)N(CCCF)CC(O)CO/N=C(\Cl)c1nc2ccccc2o1 (centres undefined)
[A] 33.8

[Q] Let us now turn to O=C(NCC(O)CO/N=C(\Cl)c1nc2ccccc2o1)N1CCCCC1 (centres undefined)
[A] 46.9

---

# assay_remarks: Cytotoxicity against human SK-N-SH cells by MTS assay
# Format: cell-based
Threshold 40 µM. CC50 below it: Criterion met. CC50 at it or above: Criterion not met.

OC(CO/N=C(\Cl)c1nc2ccccc2s1)CN1CCCC1 (stereo unspecified)    Criterion met
CC(C)N(CCCF)CC(O)CO/N=C(\Cl)c1nc2ccccc2o1 (stereo unspecified)    Criterion not met
O=C(NOCC(O)CN1CCCCC1)c1nc2ccccc2o1 (stereo unspecified)    Criterion not met
OC(CO/N=C(\Cl)c1nc2ccc(F)cc2o1)CN1CCCCC1 (stereo unspecified)    Criterion met
OC(CO/N=C(\Cl)c1nc2ccccc2o1)CN1CCCCC1 (stereo unspecified)    Criterion met

[Q] Find out if reported CC50 for CS(=O)(=O)NCC(O)CO/N=C(\Cl)c1nc2ccccc2o1 (stereo unspecified) is less than 40 µM
[A] Criterion not met

[Q] Can you handle OC(CO/N=C(\Cl)c1nc2cccc(F)c2o1)CN1CCCCC1 (stereo unspecified) next?
[A] Criterion met

[Q] And then CCCN(CC)CC(O)CO/N=C(\Cl)c1nc2ccccc2o1 (stereo unspecified) , what is it?
[A] Criterion not met

[Q] Entry to check: OC(CO/N=C(\Cl)c1nc2cc(F)ccc2o1)CN1CCCCC1 (stereo unspecified)
[A] Criterion not met

[Q] Now the compound CCC(C)N(CC(O)CO/N=C(\Cl)c1nc2ccccc2o1)C(C)CC (stereo unspecified)
[A] Criterion not met
